# pIC50 values compiled below
- Subject of test: human carbonic anhydrase 9 (CAIX) (human, UniProt Q16790 38-459)
- Run description: FACS competition on HT-29 cells against tracer 3BP-2776; pIC50 category A = pIC50 >8.0
- Procedure: CAIX-expressing human HT-29 colorectal cancer cells (DSMZ, RRID: CVCL_0320) were cultured in McCoys's 5A modified medium (Biochrom, #F1015) including 10% fetal calf serum (FCS), 2 mM L-glutamine, 100 U/ml penicillin and 100 μg/mL streptomycin. […] Cells were washed twice with ice-cold FACS buffer and analyzed in an Attune NxT flow cytometer (Thermo Fisher). Median fluorescence intensities (MFI) of the APC/Cy5-channel were calculated by Attune NxT software.
Starred links: 1 amine or outer side, 2 acyl side, 3 side chain; linkers in the order of their positions; H or OH if unused. Positions of bridges follow the written chain, without caps; N, C: chain ends. Non-standard residues stand in square brackets, D forms with d. mXylylene = c1cc(C[*:1])cc(C[*:2])c1; tBuAla = CC(C)(C)C[C@H](N)C(=O)O; Aib = CC(C)(N)C(=O)O

INSERT INTO results (binder, endpoint_name, reported_result) VALUES
  ('Ac-VYCE[dP]DW[tBuAla]TWAC-NH2 (linker 3-12 via mXylylene; SMILES CC(=O)N[C@H](C(=O)N[C@@H](Cc1ccc(O)cc1)C(=O)N[C@H]1CSCc2cccc(c2)CSC[C@@H](C(N)=O)NC(=O)[C@H](C)NC(=O)[C@H](Cc2c[nH]c3ccccc23)NC(=O)[C@H]([C@@H](C)O)NC(=O)[C@H](CC(C)(C)C)NC(=O)[C@H](Cc2c[nH]c3ccccc23)NC(=O)[C@H](CC(=O)O)NC(=O)[C@H]2CCCN2C(=O)[C@H](CCC(=O)O)NC1=O)C(C)C, also called Ac-Val-Tyr-[Cys(3MeBn)-Glu-pro-Asp-Trp-Npg-Thr-Trp-Ala-Cys]-NH2) [3BP-3490]', 'pIC50', '> 8 pic50');

Read the entry Ac-VYCE[Aib]DWLTWQC-NH2 (linker 3-12 via mXylylene; SMILES CC(=O)N[C@H](C(=O)N[C@@H](Cc1ccc(O)cc1)C(=O)N[C@H]1CSCc2cccc(c2)CSC[C@@H](C(N)=O)NC(=O)[C@H](CCC(N)=O)NC(=O)[C@H](Cc2c[nH]c3ccccc23)NC(=O)[C@H]([C@@H](C)O)NC(=O)[C@H](CC(C)C)NC(=O)[C@H](Cc2c[nH]c3ccccc23)NC(=O)[C@H](CC(=O)O)NC(=O)C(C)(C)NC(=O)[C@H](CCC(=O)O)NC1=O)C(C)C, also called Ac-Val-Tyr-[Cys(3MeBn)-Glu-Aib-Asp-Trp-Leu-Thr-Trp-Gln-Cys]-NH2) [3BP-3059] and write its reported pIC50.
> 8 pic50
